System: HCVpp (HCV E1/E2, isolate Con1) entry into Hep3B2.1-7 cells
protocol_details: microbe, parasite or virus in culture
Type: cell-based
condition_label: Hepatitis C virus, 72 h, read-out: EC50 (nM) Example 46
readout_type: EC50
# answer = value followed by unit

[Q] Request the reported EC50 associated with CC(C)S(=O)(=O)CCNC(=O)c1ccc2[nH]c3c(c2c1)C1(CCC1)Cc1c[nH]nc1-3 [Compound 3011]
[A] 2.8 nM

[Q] What value of measured EC50 is listed for CC1(C)Cc2c[nH]nc2-c2[nH]c3ccc(C(=O)N[C@H]4CCOC4)cc3c21 [Compound 1006] ?
[A] 112 nM

[Q] Bench note: what EC50 did CC1(C)Cc2c[nH]nc2-c2[nH]c3ccc(C(=O)Nc4cccnc4)cc3c21 [Compound 1126] show?
[A] 65 nM

[Q] Endpoint output: EC50 of CC1(C)c2c[nH]nc2-c2[nH]c3ccc(C(=O)NC4CCN(C(=O)c5ncn[nH]5)C4)cc3c21 (stereo not shown) [Compound 5002] . Value?
[A] 59 nM

* * *

Tested on: HCVpp (HCV E1/E2, isolate Con1) entry into Hep3B2.1-7 cells
protocol_details: microbe, parasite or virus in culture
Format: cell-based
condition_label: Hepatitis C virus, 72 h, read-out: EC50 (nM) Example 46
The reader will find reported log10 of EC50 values listed item by item below.
Hello, just confirming the data are log10 of EC50 with units of nM.

Here are 2 compounds together with their reported answers.
{"compound": "CC1(C)Cn2cnnc2-c2[nH]c3ccc(C(=O)NCc4ccccn4)cc3c21", "observed_measurement": 3.15}
{"compound": "CC1(C)Cc2c[nH]nc2-c2[nH]c3ccc(C(=O)NC4CCN(C(=O)c5ccccn5)C4)cc3c21 (centres unmarked)", "observed_measurement": 1.08}

[Q] // lookup log10 of EC50 for CC(C)NC(=O)N1CCC(NC(=O)c2ccc3[nH]c4c(c3c2)C(C)(C)Cc2c[nH]nc2-4)C1 (centres unmarked)
[A] 1.28

[Q] log10 of EC50 lookup needed for COC(=O)c1ccc2[nH]c3c(c2c1)C(C)(C)Cc1c[nH]nc1-3 , thanks.
[A] 1.99

[Q] Suppose we examine the compound CC1(C)Cc2cnc(N)nc2-c2[nH]c3ccc(C(=O)NCc4ccccn4)cc3c21 ; what log10 of EC50 value has been reported?
[A] 3.13

* * *

Test system: HCVpp (HCV E1/E2, isolate Con1) entry into Hep3B2.1-7 cells
protocol_details: microbe, parasite or virus in culture
Type: cell-based
condition_label: Hepatitis C virus, 72 h, read-out: EC50 (nM) Example 46
Param label: returns met when EC50 < 100 nM, returns not met otherwise, including exact equality.

Some solved cases for reference:
{"compound": "O=C(NC1CCN(C(=O)c2ccccn2)C1)c1ccc2[nH]c3c(c2c1)C1(CCC1)Cc1c[nH]nc1-3 (centres unmarked)", "class_label": "met"}
{"compound": "CC1CC2(Cc3c[nH]nc3-c3[nH]c4ccc(C(=O)NCc5ccccn5)cc4c32)C1 (centres unmarked)", "class_label": "met"}
{"compound": "CC1(C)Cc2sc(N)nc2-c2[nH]c3ccc(C(=O)NC4CCS(=O)(=O)C4)cc3c21 (centres unmarked)", "class_label": "not met"}
{"compound": "Cc1nc2c(s1)CC(C)(C)c1c-2[nH]c2ccc(C(=O)NC3CCS(=O)(=O)C3)cc12 (centres unmarked)", "class_label": "not met"}

Continue with the next compound.
[Q] Please check: EC50 for Cn1cc2c(n1)-c1[nH]c3ccc(C(=O)NCc4ccccn4)cc3c1C(C)(C)C2 , strictly under 100 nM or not?
[A] not met

* * *

EC50 values, listed per item
Tested on: HCVpp (HCV E1/E2, isolate Con1) entry into Hep3B2.1-7 cells
protocol_details: microbe, parasite or virus in culture
Type: cell-based
condition_label: Hepatitis C virus, 72 h, read-out: EC50 (nM) Example 46
Please give a number only; it is taken to be in nM.

{"compound": "Cc1ncc2c(n1)-c1[nH]c3ccc(C(=O)NC4CCS(=O)(=O)C4)cc3c1C(C)(C)C2 (stereo not drawn) [Compound 2028]", "unit_symbol": "nM", "observed_measurement": 885}
{"compound": "CC1(C)Cn2ccnc2-c2[nH]c3ccc(C(=O)NC4CCOCC4)cc3c21 [Compound 2012]", "unit_symbol": "nM", "observed_measurement": 230}

Okay, next one:
[Q] Look up EC50: CC1(C)Cc2c[nH]nc2-c2[nH]c3ccc(C(N)=O)cc3c21 [Compound 1011]
[A] 72
